- TEST TARGET: Corticotropin-releasing factor receptor 1 (Homo sapiens)
- METHOD SUMMARY: Binding affinity to recombinant human Corticotropin releasing factor receptor 1 (hCRF1) expressed in 293EBNA cells
MEASURED QUANTITY: log10 Ki (log10 of the value in nM)
// units: nM (pre-log); metric: Ki; scale: log10

# annotated cases, reported log10 Ki shown
MOLECULE: CCC(CC)Nc1nc(C)nc2c1nnn2-c1ccc(C(C)C)cc1Br
MEASURED: 0.72

MOLECULE: CCC(COC)Oc1nc(C)nc2c1nnn2-c1ccc(C(C)C)cc1Br (stereo not given)
MEASURED: 0.28

MOLECULE: CCCCN(CC)c1nc(C)nc2c1c(C)c(C)n2-c1c(C)cc(C)cc1C [ANTALARMIN]
MEASURED: -0.08

q: Report value only: log10 Ki, Corticotropin-releasing factor receptor 1 (Homo sapiens), "Cc1nc(N2CCCC2)c2nnn(-c3ccc(C(C)C)cc3Br)c2n1"
a: 2.29

q: Lab note: record log10 Ki of "COCCN(CCOC)c1nc(C)nc2c1nnn2-c1ccc(Br)cc1Br" tested on Corticotropin-releasing factor receptor 1 (Homo sapiens).
a: 0.87

###

- TEST TARGET: Corticotropin-releasing factor receptor 1 (Homo sapiens)
- METHOD SUMMARY: Binding affinity to recombinant human Corticotropin releasing factor receptor 1 (hCRF1) expressed in 293EBNA cells
Classification field. Basis: Ki. Definitions: band 1 (below 10 nM), band 2 (10 nM to below 40 nM), band 3 (40 nM or more)

MOLECULE: CCCCC(CCCC)Nc1nc(C)nc2c1nnn2-c1ccc(C(C)C)cc1Br
DISCRETE LABEL: band 1

MOLECULE: Cc1nc(N(CCO)CCO)c2nnn(-c3ccc(C(C)C)cc3Br)c2n1
DISCRETE LABEL: band 3

MOLECULE: CCCCNc1nc(C)nc2c1c(C)c(C)n2-c1c(C)cc(C)cc1C
DISCRETE LABEL: band 2

MOLECULE: CCCC(CCC)Nc1nc(C)nc2c1nnn2-c1c(C)cc(C)cc1C
DISCRETE LABEL: band 1

MOLECULE: COCCN(CCOC)c1nc(C)nc2c1nnn2-c1ccc(OC(F)(F)F)cc1Br
DISCRETE LABEL: band 2

q: Hi, small favor: classify "C=CCN(CCOC)c1nc(C)nc2c1nnn2-c1ccc(C(C)C)cc1Br" by its Ki when you get a moment.
a: band 1

###

This section presents compounds with their documented Cmax values.
- METHOD SUMMARY: The Peak plasma concentration was measured in dogs after oral administration of 1 mg/kg dose
- Type: ADME, organism-based, Canis lupus familiaris
- Set-up: dose 1 mg/kg, route oral
- RUN PARAMETERS: dog
Output spec: scalar in nM, unitless text.

Look over these answered cases.
COMPOUND: CCCCN(CC)c1nc(C)nc2c1nnn2-c1ccc(C(C)C)cc1Br
MEASURED QUANTITY: Cmax
UNITS SYMBOL: nM
MEASURED: 141
//
COMPOUND: CCC(COC)Nc1nc(C)nc2c1nnn2-c1ccc(C(C)C)cc1Br (stereo in doubt; 4x)
MEASURED QUANTITY: Cmax
UNITS SYMBOL: nM
MEASURED: 546
//
COMPOUND: COCCN(CCOC)c1nc(C)nc2c1nnn2-c1ccc(C(C)C)cc1Br
MEASURED QUANTITY: Cmax
UNITS SYMBOL: nM
MEASURED: 308

q: Input "COCCN(Cc1ccccc1)c1nc(C)nc2c1nnn2-c1ccc(C(C)C)cc1Br" , output reported Cmax.
a: 39

###

- METHOD SUMMARY: The Peak plasma concentration was measured in rats after oral administration of 1 mg/kg dose
- Format: ADME, organism-based
- Parameters: dose 1 mg/kg, route oral
- RUN PARAMETERS: rat
# reported Cmax; entries follow
Lab book: enter the figure in nM, no units written.

In the examples that follow, each entry is paired with its recorded Cmax.
COMPOUND: CCC(COC)Nc1nc(C)nc2c1nnn2-c1ccc(C(C)C)cc1Br (stereo in doubt; 4x)
UNITS SYMBOL: nM
Cmax: 30.7

COMPOUND: CCC(COC)Oc1nc(C)nc2c1nnn2-c1ccc(C(C)C)cc1Br (stereo unspecified)
UNITS SYMBOL: nM
Cmax: 5.9

COMPOUND: COCCN(Cc1ccccc1)c1nc(C)nc2c1nnn2-c1ccc(C(C)C)cc1Br
UNITS SYMBOL: nM
Cmax: 12.5

COMPOUND: CCC(CCOC)Nc1nc(C)nc2c1ncn2-c1ccc(C(C)C)cc1Br (stereo unspecified)
UNITS SYMBOL: nM
Cmax: 19.9

q: Answer with the recorded Cmax of "CCCCN(CC)c1nc(C)nc2c1nnn2-c1ccc(C(C)C)cc1Br" only.
a: 49.2

q: Indicate the recorded Cmax value for this compound: "COCCN(CCOC)c1nc(C)nc2c1nnn2-c1ccc(C(C)C)cc1Br"
a: 30

###

AUC T: recorded values
- Tested on: Canis familiaris
- METHOD SUMMARY: The Plasma area under the compound concentration -time curve was measured in dogs after oral administration of 1 mg/kg dose
- Format: ADME, organism-based, Canis lupus familiaris
- Parameters: dose 1 mg/kg, route oral
- RUN PARAMETERS: dog, in vivo
Respond with the bare value in µM·h.

Solved entries (count: 3):
COMPOUND: CCC(COC)Nc1nc(C)nc2c1nnn2-c1ccc(C(C)C)cc1Br (stereo in doubt; 4x)
TEST TARGET: Canis familiaris
UNITS SYMBOL: µM·h
AUC T: 3.14

COMPOUND: CCCCN(CC)c1nc(C)nc2c1nnn2-c1ccc(C(C)C)cc1Br
TEST TARGET: Canis familiaris
UNITS SYMBOL: µM·h
AUC T: 0.824

COMPOUND: COCCN(CCOC)c1nc(C)nc2c1nnn2-c1ccc(C(C)C)cc1Br
TEST TARGET: Canis familiaris
UNITS SYMBOL: µM·h
AUC T: 0.914

Here is the next item to consider.
q: Please list AUC T recorded for the compound "COCCN(Cc1ccccc1)c1nc(C)nc2c1nnn2-c1ccc(C(C)C)cc1Br"
a: 0.366

###

- TEST TARGET: Corticotropin-releasing factor receptor 1 (Homo sapiens, UniProt P34998)
- Sequence (P34998 whole entry): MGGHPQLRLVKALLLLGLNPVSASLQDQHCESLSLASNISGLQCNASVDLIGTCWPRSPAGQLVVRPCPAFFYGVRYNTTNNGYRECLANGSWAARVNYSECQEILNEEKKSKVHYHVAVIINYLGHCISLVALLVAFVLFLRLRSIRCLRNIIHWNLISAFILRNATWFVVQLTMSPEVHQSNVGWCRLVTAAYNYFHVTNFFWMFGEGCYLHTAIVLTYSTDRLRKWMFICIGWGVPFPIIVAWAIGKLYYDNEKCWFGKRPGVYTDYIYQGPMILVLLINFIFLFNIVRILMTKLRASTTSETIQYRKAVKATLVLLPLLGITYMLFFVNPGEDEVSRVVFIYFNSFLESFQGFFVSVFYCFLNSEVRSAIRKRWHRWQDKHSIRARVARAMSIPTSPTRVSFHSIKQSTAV
- METHOD SUMMARY: Binding affinity to recombinant human Corticotropin releasing factor receptor 1 (hCRF1) expressed in 293EBNA cells
pKi: −log10 of the molar value.
t means recorded pKi is 7 or above; f means it is below 7.

Consider the worked cases shown below.
COMPOUND: CCC(CO)Nc1nc(C)nc2c1c(C)c(C)n2-c1c(C)cc(C)cc1C (configuration not stated)
DISCRETE LABEL: t
--
COMPOUND: CCCCN(CC)c1nc(C)nc2c1nnn2-c1ccc(C(C)=O)cc1Br
DISCRETE LABEL: t
--
COMPOUND: COCCNc1nc(C)nc2c1nnn2-c1ccc(C(C)C)cc1Br
DISCRETE LABEL: f
--
COMPOUND: CCCCC(CC)Oc1nc(C)nc2c1nnn2-c1ccc(C(C)C)cc1Br (configuration not stated)
DISCRETE LABEL: t
--
COMPOUND: CCCCC(CC)Nc1nc(C)nc2c1nnn2-c1ccc(C(C)C)cc1Br (configuration not stated)
DISCRETE LABEL: t
--
COMPOUND: COCCNc1nc(C)nc2c1ncn2-c1ccc(C(C)C)cc1Br
DISCRETE LABEL: f
--
COMPOUND: CCCC(CN(C)C)Nc1nc(C)nc2c1nnn2-c1ccc(C(C)C)cc1Br (configuration not stated)
DISCRETE LABEL: t
--
COMPOUND: COCCN(CCOC)c1ncnc2c1nnn2-c1ccc(C(C)C)cc1Br
DISCRETE LABEL: f

q: hey, is pKi for this one >= 7? "COCCN(CC1CC1)c1nc(C)nc2c1nnn2-c1ccc(C(C)C)cc1Br"
a: t

q: Hello, I need to know if "Cc1cc(C)c(-n2c(C)c(C)c3c(N4CCOCC4)nc(C)nc32)c(C)c1" has measured pKi not below 7. Thanks!
a: f

q: Is the recorded value of pKi equal to or greater than 7 for this compound? "CCCC(CCC)Nc1nc(C)nc2c1nnn2-c1ccc(Br)cc1Br"
a: t

q: State whether the measured pKi reaches 7, counting equality as reaching it, for "CCN(CCOC)c1nc(C)nc2c1nnn2-c1ccc(C(C)C)cc1Br"
a: t

q: Could you verify whether the entry COCC(Cc1ccccc1)Nc1nc(C)nc2c1nnn2-c1c(C)cc(C)cc1C (configuration not stated) shows pKi of no less than 7?
a: t

q: Does the reported pKi for CCC(COC)Nc1nc(C)nc2c1nnn2-c1ccc(C(C)C)cc1Br (stereo in doubt; 4z) fall at or above the 7 mark?
a: t

q: Identify whether the reported pKi of the following compound is 7 or greater: "COCCN(CCOC)c1cc(C)nc2c1nnn2-c1ccc(C(C)C)cc1S(C)(=O)=O"
a: f
